Listing of entries alongside the reported pIC50.
tested on: HCT-116; assay: Antitumor activity against human HCT116 cells after 72 hrs by MTS assay; format: functional, cell-based; settings: HCT-116, 72 h
pIC50: −log10 of the molar value.

Ask: Supply pIC50 value. Item: "Br.N=C(N)[Se]CCc1ccccc1"
Result: < 4.00

Ask: Supply pIC50 value. Item: Br.N=C(N)SCCc1ccccc1 [PHENYLETHYLISOTHIOUREAHYDROBROMIDE]
Result: < 4.00

Ask: Supply pIC50 value. Item: "Br.Br.N=C(N)SCCc1ccc(CCSC(=N)N)cc1"
Result: < 4.00

###

test system: OVCAR-3; experiment: Antitumor activity against human OVCAR-3 cells after 24 hrs by MTS assay; format: functional, cell-based; settings: OVCAR-3, 24 h
PROPERTY_MEASURED: IC50 (µM)
The figure you give is taken to be in µM; do not add the unit.

Ask: Supply IC50 value. Item: "Br.N=C(N)[Se]CCc1ccc(CC[Se]C(=N)N)cc1"
Result: 5.33
